Test: Pharmacokinetics after single oral co-administered dose of morphine and oxycodone (about 3:2) in healthy subjects
Details: human, plasma, po, Cmax, healthy subjects, single oral co-administered dose morphine/oxycodone 3 mg/2 mg, n = 18
Metric: Cmax
The number alone won't do; follow it with the unit.

Q. Return value of Cmax for input COc1ccc2c3c1O[C@H]1C(=O)CC[C@@]4(O)[C@@H](C2)N(C)CC[C@]314 [Oxycodone, oxycodone] , no commentary.
A. 4.9 ng/mL

---

Assay: Pharmacokinetics after single oral co-administered dose of morphine and oxycodone (about 3:2) in healthy subjects
Conditions: human, plasma, po
Metric: Tmax
Give me the value, and tack the unit on after it.

Q. Tell us which Tmax value is on record for COc1ccc2c3c1O[C@H]1C(=O)CC[C@@]4(O)[C@@H](C2)N(C)CC[C@]314 [Oxycodone, oxycodone]
A. 1 h
